Tested on: PfAP2-I AP2 domain 3 (GST-tagged)
assay.details: gcPBM binding intensity (ln(normalized median fluorescence intensity)); higher = stronger DNA binding
Over roughly 25,000 sequences, “ln(normalized median fluorescence intensity)” has its median near 7.9; the highest 2% begin near 11. The entries come from a sample that favours the highest values as a whole.
outcome.measure: gcPBM binding intensity (ln)
Just the number, please, no unit after it.

Q: What does the record list as gcPBM binding intensity (ln) for AGTTATAAACATATGTGTACTTATAAAAACATATAG [XGTACX_site3268] ?
Ans: 7.87

Q: What does the record list as gcPBM binding intensity (ln) for TTGTTCATTATGCACAGTACATAAAAAGTAAAAAAA [XGTACX_site2403] ?
Ans: 10

Q: What does the record list as gcPBM binding intensity (ln) for ACAAATTGTTAAAGGTGTACAATACATATATAAGAA [XGTACX_site4906] ?
Ans: 8.46

Q: What does the record list as gcPBM binding intensity (ln) for AAATCCATATAGGATTGTACATATATTATATATATA [XGTACX_site8818] ?
Ans: 8.46

Q: What does the record list as gcPBM binding intensity (ln) for ATAAAATAAAGGAAAAATATTAAGTTTTAAGAAAAT [CACACA_negctrl_site1066] ?
Ans: 7.6

Q: What does the record list as gcPBM binding intensity (ln) for TTTGTGTTTATAAATTGTACAAAGGTGCAAGAAGAA [XGTACX_site2159] ?
Ans: 11.1

Q: What does the record list as gcPBM binding intensity (ln) for AAAAAAAGTTGATACTGTACTCGTGCATTATGAATA [XGTACX_site5558] ?
Ans: 11.3

Q: What does the record list as gcPBM binding intensity (ln) for ATAAGATAGGCATATACACACATTTATTTACAGATA [CACACA_site5754] ?
Ans: 7.71

Q: What does the record list as gcPBM binding intensity (ln) for AATATTATAAATGATACACACTTAAAATACACGCAC [CACACA_site7305] ?
Ans: 8.71

Q: What does the record list as gcPBM binding intensity (ln) for GCATATATGGATATATAGGTATATATAAATGCAATA [GTGCAC_negctrl_site24] ?
Ans: 7.82

Q: What does the record list as gcPBM binding intensity (ln) for GGGAAACGATTTAATACACACACGTATTATATATAT [CACACA_site1160] ?
Ans: 8.48

Q: What does the record list as gcPBM binding intensity (ln) for TGTATGTTTGGGTGCACACATAAATATTATATATAG [CACACA_site3397] ?
Ans: 10.5

Q: What does the record list as gcPBM binding intensity (ln) for AAAAAAAATTATATTTGTACGCATTAAAAAATCTAA [XGTACX_site1616] ?
Ans: 7.64

Q: What does the record list as gcPBM binding intensity (ln) for TGGGCACCCATATACACACACAAATACAATGATAAA [CACACA_site4762] ?
Ans: 7.78

Q: What does the record list as gcPBM binding intensity (ln) for AAAAAAAAATATATTGCACACCTCTCAATAAAAAAA [CACACA_site172] ?
Ans: 10.3

Q: What does the record list as gcPBM binding intensity (ln) for TATTCGTGCAATAATGGTACACTTATAAATTATTCA [XGTACX_site1430] ?
Ans: 10.7

Q: What does the record list as gcPBM binding intensity (ln) for ATATATTTATAATAGGTGCATATGTTTTATTTTTCC [GTGCAC_site9849] ?
Ans: 10.1

Q: What does the record list as gcPBM binding intensity (ln) for TAATTATAATAATAACGTACATATATAAAATGGTGA [XGTACX_site8434] ?
Ans: 8.04

Q: What does the record list as gcPBM binding intensity (ln) for AAGAAATTTATTTATTGTACAATATATAATTTGTTT [XGTACX_site2478] ?
Ans: 7.59

###

System: PfAP2-I AP2 domain 3 (GST-tagged)
assay.details: gcPBM binding intensity (ln(normalized median fluorescence intensity)); higher = stronger DNA binding
In all, about 25,000 sequences were measured (“ln(normalized median fluorescence intensity)”: median about 7.9, highest 2% from about 11 on). The entries come from a sample that favours the highest values as a whole.
Exercise: state measured gcPBM binding intensity (ln) for each of the sequences provided.
Just the number, please, no unit after it.

Q: What does the record list as gcPBM binding intensity (ln) for AATTGTTCTATGATTTGTACACACTTTTTTTTAAAA [XGTACX_site5984] ?
Ans: 8.15

Q: What does the record list as gcPBM binding intensity (ln) for TATATGTATGTATGTACACACAAAAAATGGAATATA [CACACA_site3717] ?
Ans: 7.93

Q: What does the record list as gcPBM binding intensity (ln) for AAAAATGGAATTATCTGTACATATATAGTTTTTAAA [XGTACX_site5580] ?
Ans: 7.44

Q: What does the record list as gcPBM binding intensity (ln) for TATAAGTTGATATATACACACATATATAAATATGTA [CACACA_site7526] ?
Ans: 7.4

Q: What does the record list as gcPBM binding intensity (ln) for AAATGTGCATTATGTTGTACAGTCGAAATTTTTTTT [XGTACX_site3812] ?
Ans: 11.1

Q: What does the record list as gcPBM binding intensity (ln) for TTTCACCATATAAACGTGCACACTACAAAAATATAT [CACACA_site2547] ?
Ans: 11.1

Q: What does the record list as gcPBM binding intensity (ln) for ATTATTATATATATAACACACATAATTATATACTTA [CACACA_site1563] ?
Ans: 7.89

Q: What does the record list as gcPBM binding intensity (ln) for AAACAAAAAATATATACACACTAAACATAAAAAAAA [CACACA_site4185] ?
Ans: 7.81

Q: What does the record list as gcPBM binding intensity (ln) for TTAGAAAAATTATATATACACACTTATATTTATATA [CACACA_site2821] ?
Ans: 7.28

###

Test system: PfAP2-I AP2 domain 3 (GST-tagged)
assay.details: gcPBM binding intensity (ln(normalized median fluorescence intensity)); higher = stronger DNA binding
The full ranking holds about 25,000 sequences; the median of “ln(normalized median fluorescence intensity)” is about 7.9, and the highest 2% start at about 11. What follows is part of a selection rich in the highest values, with near analogues and random picks from the rest.
Record condition met whenever gcPBM binding intensity (ln) is at 8 or higher; record condition not met when lower.

Q: Determine whether measured gcPBM binding intensity (ln) meets or exceeds 8 for TAATATAATATATGCACACAAATATGTATATATGTG [CACACA_site2134]
Ans: condition met

Q: Determine whether measured gcPBM binding intensity (ln) meets or exceeds 8 for TATTATTATTGTTGATGTACATTTAATATAATATAT [XGTACX_site4482]
Ans: condition not met

Q: Determine whether measured gcPBM binding intensity (ln) meets or exceeds 8 for TATTTAATTATATAAAATTAAATTTTTAATTCTTCC [CACACA_negctrl_site473]
Ans: condition not met

Q: Determine whether measured gcPBM binding intensity (ln) meets or exceeds 8 for TTAAAAAATATATGCGTGCACTAATATTTCATATGC
Ans: condition met

Q: Determine whether measured gcPBM binding intensity (ln) meets or exceeds 8 for TGTATAAATATAATCACACATATATATATATATATA [CACACA_site4365]
Ans: condition met

Q: Determine whether measured gcPBM binding intensity (ln) meets or exceeds 8 for TAAAATATTATCTACGCACACATTAAAATAAAAAAA [CACACA_site3709]
Ans: condition met

Q: Determine whether measured gcPBM binding intensity (ln) meets or exceeds 8 for TGATTCAATTTATGCACACTAAAAATTAATTATATT [CACACA_site271]
Ans: condition met

Q: Determine whether measured gcPBM binding intensity (ln) meets or exceeds 8 for ATATTTTACAAATGCACACATAATTTTTTTTTTTTT [CACACA_site2763]
Ans: condition met

Q: Determine whether measured gcPBM binding intensity (ln) meets or exceeds 8 for TTTTTAAAATATTTAACACACAATTTTAATGCATAA [CACACA_site6036]
Ans: condition met

Q: Determine whether measured gcPBM binding intensity (ln) meets or exceeds 8 for AGGATATGCAGACACACACACATATAGATTTATATA [CACACA_site7100]
Ans: condition not met

Q: Determine whether measured gcPBM binding intensity (ln) meets or exceeds 8 for TCCCAATTTCTATCCTGTACAGACATAAATATATAC [XGTACX_site5937]
Ans: condition met

Q: Determine whether measured gcPBM binding intensity (ln) meets or exceeds 8 for ATAATATTTTAATGCACACACACAAAAAAAAAAAAA [CACACA_site2891]
Ans: condition met

Q: Determine whether measured gcPBM binding intensity (ln) meets or exceeds 8 for GTTAGGATAGATTAGACATGCACATAAATGCACTTC [TGCATGCA_site561]
Ans: condition met

Q: Determine whether measured gcPBM binding intensity (ln) meets or exceeds 8 for TTTTTTTTTTTTAATGCACACAATATATAATATGTA [CACACA_site3694]
Ans: condition met

Q: Determine whether measured gcPBM binding intensity (ln) meets or exceeds 8 for AAAAAATTAAATAATTACAAAAAAATAAAATAAAAA [GTGCAC_negctrl_site638]
Ans: condition not met

Q: Determine whether measured gcPBM binding intensity (ln) meets or exceeds 8 for AAAGTGTTAACCTAATCTTTAGTTTTTAAACAATAT [CACACA_negctrl_site841]
Ans: condition not met
